Tested on: ACHN renal
protocol_details: NCI tumour cell line growth inhibition, 48 h

compound | measurement_target | TGI
Cc1ccccc1CN1CC2=C(CCN(Cc3ccccc3)C2=O)N2CCN=C12 | ACHN renal | > 100 µM
C=CCn1c(-c2ccccc2)cs/c1=N\C(P(=O)(O)O)P(=O)(O)O | ACHN renal | > 100 µM
Cc1ccccc1C(=O)C#Cc1cn(C2CC(O)C(CO)O2)c(=O)[nH]c1=O (stereo not given) | ACHN renal | > 100 µM
COC(=O)C1=COC(C)C2C[n+]3ccc4c([nH]c5ccccc54)c3CC12 (stereo not given) | ACHN renal | > 100 µM
CC(=O)OCSc1ncnc2c1ncn2CN1CCOCC1 | ACHN renal | > 100 µM
CC1Cc2c(N)nc(NN)nc2NC1=O (stereo not given) | ACHN renal | > 100 µM
CC(=O)NC1=C(Nc2ccc(C)cc2)C(=O)c2ccccc2C1=O | ACHN renal | 47.5 µM
O=C1CSC(c2cccc(Cl)c2)N1c1c(O)c(Cl)cc(Br)c1Cl (stereo not given) | ACHN renal | 27.9 µM
CCCN=C1Nc2ccccc2[C@@H]2N(C)c3ccccc3C(C)C[C@]12C (stereo not given in full) | ACHN renal | 60.5 µM
CC1(C)NCCC[C@]2(C)[C@H]3C=CC4=C5C[C@](C)(CO)CC[C@]5(C)CC[C@@]4(C)[C@]3(C)CC[C@@H]12 | ACHN renal | 9.56 µM

----------
Tested on: 786-0 renal
protocol_details: NCI tumour cell line growth inhibition, 48 h
assay_readout: TGI

chemical_structure | result
CCCCCNC(=O)[C@@H]1CCCN2C(=O)CC[C@H](NC(=O)[C@H](Cc3ccc(OP(=O)(O)O)cc3)NC(C)=O)C(=O)N12 | > 25 µM
Cc1c(C#N)c2nnn(-c3ccc([N+](=O)[O-])cc3)c(=O)n2c1-c1ccccc1 | 26.6 µM
O=c1[nH]nc(Cc2ccccc2)n1/N=C/c1ccc([N+](=O)[O-])o1 | 22.7 µM
NC(Cc1ccccc1)=NCC(=O)O | > 100 µM
NNC(=O)Cc1cccnc1 | > 100 µM
Fc1ccc(Oc2nccc(-c3c(-c4ccc(F)cc4)ncn3C3CCNCC3)n2)cc1 | > 25 µM

----------
System: HOP-62 NSCLC
protocol_details: NCI tumour cell line growth inhibition, 48 h
Known TGI of a selection of compounds

compound | TGI
C=C(Cl)COC(=O)Nc1cccc(Cl)c1 | > 100 µM
CC(=O)[C@H]1CC[C@H]2[C@@H]3CCC4=CC(=O)CC[C@]4(C)[C@H]3CC[C@]12C | 45.4 µM
O=[N+]([O-])c1ccc(-c2nc(N(CCO)CCO)c3ccccc3n2)o1 | 0.671 µM
COc1ccc2c([nH]c3cc(O)c(C)cc32)c1C=O | > 25 µM
Cc1ccc(S(=O)(=O)N(CC(O)c2ccccc2)c2ccccc2F)cc1 (centres undefined) | 33.8 µM
Cc1cccc(C)c1NC(=O)/C(Cl)=C(/Cl)C(=O)O | > 81.7 µM
O=[N+]([O-])c1ccc(Sc2c3ccccc3nc3ccccc23)cc1 | > 100 µM
OCC(O)C(O)C(O)C1SC(c2ccccc2)=NN1c1ccccc1 (centres undefined) | > 100 µM
CCOC(=O)/C(=C\c1ccc(OCc2ccccc2)c(OC)c1)C(=O)c1ccccc1 | 33.6 µM
COc1cc(C(=O)O[C@H](C(=O)NCCNC(=O)[C@@H](OC(=O)c2cc(OC)cc3c(C)cccc23)[C@]2(C)CO2)[C@]2(C)CO2)c2cccc(C)c2c1 | 0.919 µM
O=C1OC(C2Cc3ccccc3C2=O)c2ccccc21 (centres undefined) | > 100 µM
Cc1c(NC(=S)N/N=C\C(=N/NC(=S)Nc2c(C)n(C)n(-c3ccccc3)c2=O)c2ccccc2)c(=O)n(-c2ccccc2)n1C | > 100 µM
CCOC(=O)c1[nH]cnc1/N=N/N(C)N | > 100 µM
c1ccc2c(c1)nc1n2CCNC1 | > 100 µM
O=c1[nH]c(=S)c2cc3c(=S)[nH]c(=O)n(CCC(c4ccccc4)(c4ccccc4)c4ccccc4)c3nc2n1CCC(c1ccccc1)(c1ccccc1)c1ccccc1 | > 100 µM
C=CC[C@H]1C[C@@]2(C)OC[C@H](C(C)C)N2C1=O | > 100 µM
COC(=O)/C=C(C)/C=C/c1cc(C(C)=O)c(C)o1 | > 100 µM
CCOc1cc2c(cnc3c4cc(OC)c(OC)cc4ccc23)cc1OC | > 100 µM
O=C(Nc1ccccc1)c1cc(S(=O)(=O)Nc2n[nH]c(=O)[nH]2)c(SSc2cc(Cl)c(C(=O)Nc3ccccc3)cc2S(=O)(=O)Nc2n[nH]c(=O)[nH]2)cc1Cl | > 100 µM

----------
Test system: MDA-N
protocol_details: NCI tumour cell line growth inhibition, 48 h
Reported TGI values for a set of compounds
assay_readout: TGI (µM)

compound | assay_readout | operator | quantitative_readout
CC(=O)N1CC(C)(C)c2c1cc(C)c(O)c2C | TGI | > | 100
Cc1c(C)c2c(c(N)c1C#N)C(=O)N(OS(=O)(=O)c1ccccc1)C2=O | TGI | = | 80.8
O=C1c2cc([N+](=O)[O-])cnc2S(=O)(=O)N1c1ccc(Br)cc1 | TGI | > | 100
CCSCC(=O)N1CCc2c([nH]c3ccccc23)C1=O | TGI | > | 100
CC(=O)OC(CC(C)C)P1(=O)N(CC(C)(C)C)[C@@H]2CCCC[C@H]2N1CC(C)(C)C (stereo not given in full) | TGI | = | 21.3

----------
Tested on: NCI-H460 lung
protocol_details: NCI tumour cell line growth inhibition, 48 h
Entries and their TGI

compound | operator | TGI / µM
COC1/C=C\C=C(/C)C(=O)Nc2cc3nc4ccc(Br)cc4oc-3c(c2=O)CC(C)CC(OC)C(O)C(C)/C=C(\C)C1OC(N)=O (centres undefined) | = | 17.9
COC(=O)COc1ccc(/C=C2\N=C(c3ccccc3)N(c3cc(C(F)(F)F)ccc3Cl)C2=O)cc1 | > | 100
COc1ccc2c(c1)c(=O)c1c(NCCCN(C)CCCNc3ccc4c(=O)n(CCN(C)C)c(=O)n5c6ccc(OC)cc6c(=O)c3c45)ccc3c(=O)n(CCN(C)C)c(=O)n2c31 | = | 0.209
Cc1ccccc1C(=O)C#Cc1cn(C2CC(O)C(CO)O2)c(=O)[nH]c1=O (centres undefined) | > | 100

----------
# GI50 listing for each entry below
Test system: TK-10 renal
protocol_details: NCI tumour cell line growth inhibition, 48 h

compound | GI50
CCCc1ccc(S(=O)(=O)N[C@H]2CC[C@H]3[C@@H]4CCc5cc(O)ccc5[C@H]4CC[C@]23C)cc1 | 3.8 µM
c1ccc2[nH]c(SSc3nc4ncncc4[nH]3)nc2c1 | 0.364 µM
CCC1=C[C@@H]2CN(C1)Cc1c([nH]c3ccccc13)[C@@](C(=O)OC)(c1cc3c(cc1OC)N(C=O)[C@H]1[C@@](O)(C(=O)OC)[C@H](OC(C)=O)[C@]4(CC)[C@@H]5C[C@@H]5CN5CC[C@]31[C@@H]54)C2 | 0.315 µM
CC1(C)OC[C@@H]([C@@]2(CO[Si](C)(C)C(C)(C)C)CC=CC(=O)O2)O1 | 18.3 µM
CC(C)(C)C(=O)Nc1ccccc1I(=O)=O | > 100 µM
O=C1CCCCCCCC/C=C/CCC(c2ccco2)O1 (centres undefined) | 23.5 µM
COc1ccc2c(c1)nc(N)c1c3cc(OC)c(OC)cc3cn21 | 3.48 µM
COc1cc2c(c(OC)c1OC)-c1ccc(SC)c(=O)cc1[C@@H](NC(=O)c1ccc(OC(C)=O)cc1)CC2 | 0.0113 µM
c1ccc(C(=NNc2nc3ccccc3o2)c2ccccn2)nc1 | 0.0673 µM

----------
Tested on: SF-295 CNS
protocol_details: NCI tumour cell line growth inhibition, 48 h; in the data active means GI50 below about 0.43 µM; inactive means the rest
Classes used: active, inactive

compound | assigned_category
Fc1ccc(Oc2nccc(-c3c(-c4ccc(F)cc4)ncn3C3CCNCC3)n2)cc1 | inactive
COc1c(C)c2c(c(O)c1C/C=C(\C)CCC(=O)OCCN1CCOCC1)C(=O)OC2 | active
COc1cc(C(=O)O[C@H](C(=O)NCCNC(=O)[C@@H](OC(=O)c2cc(OC)cc3c(C)cccc23)[C@]2(C)CO2)[C@]2(C)CO2)c2cccc(C)c2c1 | active
C=C1CC[C@@]2(C#N)[C@H]3[C@H](CC[C@@H]2C)[C@@H](C)C[C@@H](CC(C)(C)C#N)[C@H]13 | active
Cn1ccc2c(NCCN)c3c(c(NCCN)c21)C(=O)c1ccccc1C3=O | inactive
N#CC1=C(N)OC2=C(COc3ccc(F)cc32)C1c1ccc(Cl)cc1 (configuration not stated) | inactive
CCN1C(=O)N(CC)C2C1NN=c1s/c(=C3\C(=O)N(CC(C)C)c4ccccc43)c(=O)n12 (configuration not stated) | inactive

Reference source for all entries: PubChem BioAssay (NCI)
